// data source = ChEMBL document CHEMBL4266041

Test system: Staphylococcus aureus
procedureDetails: Antibacterial activity against methicillin-resistant Staphylococcus aureus ATCC BAA-44 after 6 to 8 hrs by bacterial proliferation assay
Assay type: functional, organism-based
runParameters: Staphylococcus aureus, ATCC BAA-44
endpointLabel: EC50 (nM)

>>> assayvalue("O=C(Nc1ccc(Sc2nc3ccccc3s2)cc1)c1cc(Br)ccc1O")
140
>>> assayvalue("O=C(Nc1cccc(Cl)c1)c1cc(Br)cc(Br)c1")
12000
>>> assayvalue("O=C(Nc1ccc(Sc2nc3ccccc3s2)cc1)c1cc(Br)cc(Br)c1O")
520
>>> assayvalue("O=C(Nc1ccc(Sc2nc3ccccc3s2)cc1)c1ccccc1O")
410
